// reported IC50 for each item listed
tested system: mGluR5 receptors (Rattus norvegicus)
Construct: endogenous in cells
Sequence (P31424 21-1203): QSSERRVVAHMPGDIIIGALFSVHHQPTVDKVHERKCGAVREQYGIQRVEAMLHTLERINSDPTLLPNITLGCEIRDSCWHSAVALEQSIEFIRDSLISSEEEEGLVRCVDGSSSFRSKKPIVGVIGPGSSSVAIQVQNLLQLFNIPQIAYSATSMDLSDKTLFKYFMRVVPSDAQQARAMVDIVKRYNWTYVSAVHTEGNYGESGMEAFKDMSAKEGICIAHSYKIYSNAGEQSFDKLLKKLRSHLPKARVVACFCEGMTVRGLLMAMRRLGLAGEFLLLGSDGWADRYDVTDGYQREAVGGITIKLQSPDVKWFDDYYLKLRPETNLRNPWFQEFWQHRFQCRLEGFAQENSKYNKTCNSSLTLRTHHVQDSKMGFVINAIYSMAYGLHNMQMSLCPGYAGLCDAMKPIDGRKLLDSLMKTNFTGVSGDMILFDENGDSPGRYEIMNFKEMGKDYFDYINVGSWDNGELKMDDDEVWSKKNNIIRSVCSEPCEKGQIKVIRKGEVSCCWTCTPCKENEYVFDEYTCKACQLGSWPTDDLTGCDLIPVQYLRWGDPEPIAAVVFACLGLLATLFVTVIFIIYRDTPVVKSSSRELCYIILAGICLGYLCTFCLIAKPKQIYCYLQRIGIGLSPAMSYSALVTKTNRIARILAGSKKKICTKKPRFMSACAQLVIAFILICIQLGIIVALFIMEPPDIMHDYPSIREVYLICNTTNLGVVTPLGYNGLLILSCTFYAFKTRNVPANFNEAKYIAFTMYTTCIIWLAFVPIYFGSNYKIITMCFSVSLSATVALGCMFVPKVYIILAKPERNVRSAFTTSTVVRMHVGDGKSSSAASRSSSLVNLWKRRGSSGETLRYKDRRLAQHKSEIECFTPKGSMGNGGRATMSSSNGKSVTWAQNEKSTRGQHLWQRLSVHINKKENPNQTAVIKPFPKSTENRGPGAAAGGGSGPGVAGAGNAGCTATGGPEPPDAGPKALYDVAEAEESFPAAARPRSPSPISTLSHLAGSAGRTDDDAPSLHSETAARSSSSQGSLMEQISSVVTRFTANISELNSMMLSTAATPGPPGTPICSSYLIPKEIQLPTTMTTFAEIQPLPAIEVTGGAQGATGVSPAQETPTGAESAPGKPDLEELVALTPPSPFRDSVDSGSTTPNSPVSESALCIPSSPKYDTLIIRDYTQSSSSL
assay overview: Cytosolic calcium studies with astrocytes (astrocyte culture test, FLIPR)
condition info: rat primary astrocytes; L-quisqualate 100 nM; read-out: mGluR5_FLIPR_r_rpA— IC50

{"molecule": "CC1c2ccoc2CCN1C(=O)c1cc2ncc(Cl)cn2n1 (stereo not shown) [Example 29]", "IC50 / nM": 64}
{"molecule": "CC1c2ccsc2CCN1C(=O)c1cc2ncc(Br)cn2n1 (stereo not shown) [Example 1]", "IC50 / nM": 23}
{"molecule": "CC1c2ccsc2CCN1C(=O)c1cc2ncc(Cl)cn2n1 (stereo not shown) [Example 2]", "IC50 / nM": 24}
{"molecule": "Cc1cc2c(s1)CCN(C(=O)c1cc3ncc(Cl)cn3n1)C2C (stereo not shown) [Example 16]", "IC50 / nM": 21}
{"molecule": "Cc1cc2c(o1)CCN(C(=O)c1cc3ncc(Br)cn3n1)C2C (stereo not shown) [Example 44]", "IC50 / nM": 36}
{"molecule": "CC1c2ccoc2CCN1C(=O)c1cc2ncc(Br)cn2n1 (stereo not shown) [Example 28]", "IC50 / nM": 80.5}
{"molecule": "CCC1c2ccsc2CCN1C(=O)c1cc2ncc(Br)cn2n1 (stereo not shown) [Example 9]", "IC50 / nM": 21}
{"molecule": "Cc1cc2c(s1)CCN(C(=O)c1cc3ncc(Br)cn3n1)C2C (stereo not shown) [Example 15]", "IC50 / nM": 22.8}
{"molecule": "C[C@@H]1c2ccsc2CCN1C(=O)c1cc2ncc(Br)cn2n1 [Example 42]", "IC50 / nM": 20}
{"molecule": "CCC1c2ccsc2CCN1C(=O)c1cc2ncc(Cl)cn2n1 (stereo not shown) [Example 10]", "IC50 / nM": 21}

----------
tested system: transmembrane allosteric modulatory sites of mGluR5 receptors (Rattus norvegicus, UniProt P31424)
Construct: from tissue; host or cells: cortex of male Sprague-Dawley rats, membrane preparation
assay overview: [3H]-MPEP binding assay in rat cortical membranes
condition info: displacement of radioligand, read-out: mGluR5_M_MPEP_r_CTX IC50
Mark true (1) for IC50 under 80 nM, false (0) if at or over.

{"molecule": "CC1c2ccsc2CCN1C(=O)c1cc2ncc(Cl)cn2n1 (stereo not shown)", "class name": "true (1)"}
{"molecule": "CC1c2ccoc2CCN1C(=O)c1cc2ncc(Cl)cn2n1 (stereo not shown)", "class name": "false (0)"}
{"molecule": "CCC1c2ccsc2CCN1C(=O)c1cc2ncc(Br)cn2n1 (stereo not shown)", "class name": "false (0)"}
{"molecule": "Cc1cc2c(s1)CCN(C(=O)c1cc3ncc(Cl)cn3n1)C2C (stereo not shown)", "class name": "true (1)"}
{"molecule": "Cc1cc2c(s1)CCN(C(=O)c1cc3ncc(Br)cn3n1)C2C (stereo not shown)", "class name": "true (1)"}
{"molecule": "C[C@@H]1c2ccsc2CCN1C(=O)c1cc2ncc(Br)cn2n1", "class name": "true (1)"}
{"molecule": "Cc1cc2c(o1)CCN(C(=O)c1cc3ncc(Br)cn3n1)C2C (stereo not shown)", "class name": "true (1)"}
{"molecule": "CC1c2ccoc2CCN1C(=O)c1cc2ncc(Br)cn2n1 (stereo not shown)", "class name": "false (0)"}
{"molecule": "CCC1c2ccsc2CCN1C(=O)c1cc2ncc(Cl)cn2n1 (stereo not shown)", "class name": "false (0)"}
